B1: Azoarcus group I ribozyme (parent)
chain: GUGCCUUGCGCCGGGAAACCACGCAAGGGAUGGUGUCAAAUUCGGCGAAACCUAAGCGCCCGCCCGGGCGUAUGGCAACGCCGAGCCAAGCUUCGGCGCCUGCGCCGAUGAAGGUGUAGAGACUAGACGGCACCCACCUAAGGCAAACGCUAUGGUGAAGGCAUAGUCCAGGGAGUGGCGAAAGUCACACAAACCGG

Variants of: B1
Assay: reverse-splicing fitness (ratio to wild type); higher = more active; in vitro selection; Mg2+ level not given
# label = Y if reverse-splicing fitness >= 0.007 else N

Query: // inclusive: reverse-splicing fitness at least 0.007? input: C82G A111C A120C A145C C150G C169G U176G
Reply: N

Query: // inclusive: reverse-splicing fitness at least 0.007? input: C82U A111C A120U A145U C169A U176A
Reply: N

Query: // inclusive: reverse-splicing fitness at least 0.007? input: A111U A120U A145G C150A U176C
Reply: Y

Query: // inclusive: reverse-splicing fitness at least 0.007? input: C82G A120C A145G C150G C169A U176G
Reply: Y

Query: // inclusive: reverse-splicing fitness at least 0.007? input: A111U A120U A145G C150U C169A U176G
Reply: N

Query: // inclusive: reverse-splicing fitness at least 0.007? input: C82A A111U A145C C150A U176G
Reply: Y

Query: // inclusive: reverse-splicing fitness at least 0.007? input: C82A A111G A120U C150A U176C
Reply: Y

Query: // inclusive: reverse-splicing fitness at least 0.007? input: A111G A120U A145C C150A C169G
Reply: N

Query: // inclusive: reverse-splicing fitness at least 0.007? input: C82U C150U C169A U176G
Reply: N

Query: // inclusive: reverse-splicing fitness at least 0.007? input: C82U A111G A145G C169G U176C
Reply: Y

Query: // inclusive: reverse-splicing fitness at least 0.007? input: C82U A111C A120C C169U U176A
Reply: Y

Query: // inclusive: reverse-splicing fitness at least 0.007? input: C82A A111G A120U A145C C150U C169U U176G
Reply: N

Query: // inclusive: reverse-splicing fitness at least 0.007? input: C82A A120U A145G C150U C169A U176G
Reply: N

Query: // inclusive: reverse-splicing fitness at least 0.007? input: C82G A111U A120G A145U C169U U176A
Reply: Y

Query: // inclusive: reverse-splicing fitness at least 0.007? input: C82U A111U A120G A145G C150U
Reply: Y

Query: // inclusive: reverse-splicing fitness at least 0.007? input: A111G C150U C169U U176C
Reply: Y

Query: // inclusive: reverse-splicing fitness at least 0.007? input: C82U A111G A145C U176C
Reply: Y

Query: // inclusive: reverse-splicing fitness at least 0.007? input: C82U A120C A145U C150A C169U U176G
Reply: N

Query: // inclusive: reverse-splicing fitness at least 0.007? input: C82G A111C A120G C150A C169U U176C
Reply: Y

Query: // inclusive: reverse-splicing fitness at least 0.007? input: C82G A111U A120U A145U C150U C169U U176G
Reply: N

Query: // inclusive: reverse-splicing fitness at least 0.007? input: C82U A111C A120U A145G C150U U176A
Reply: Y

Query: // inclusive: reverse-splicing fitness at least 0.007? input: C82A A111G A120C A145C C150G C169G U176C
Reply: Y

Query: // inclusive: reverse-splicing fitness at least 0.007? input: C82U A111U A120G A145C C150G C169A U176C
Reply: N

Query: // inclusive: reverse-splicing fitness at least 0.007? input: C82A A111U A145G C150G C169A U176C
Reply: Y

Query: // inclusive: reverse-splicing fitness at least 0.007? input: A111G A120C A145G C169U U176A
Reply: Y

Query: // inclusive: reverse-splicing fitness at least 0.007? input: C82G A111U A145G C150G C169U U176A
Reply: Y

Query: // inclusive: reverse-splicing fitness at least 0.007? input: C82A A111U A120U A145U C150A C169G U176C
Reply: N

Query: // inclusive: reverse-splicing fitness at least 0.007? input: C82A A120G A145U C150G U176G
Reply: N

Query: // inclusive: reverse-splicing fitness at least 0.007? input: C82U A111U A145G U176A
Reply: Y

Query: // inclusive: reverse-splicing fitness at least 0.007? input: A111G A120G A145C C169G U176C
Reply: Y

Query: // inclusive: reverse-splicing fitness at least 0.007? input: C82G A111C A120C C150G C169G U176G
Reply: N

Query: // inclusive: reverse-splicing fitness at least 0.007? input: C82A A111G A120U A145G C150A C169A U176A
Reply: Y

Query: // inclusive: reverse-splicing fitness at least 0.007? input: A111U A120C A145C C150A C169A
Reply: N
